Entries annotated with measured AC50
biological target: PKR R510Q (Homo sapiens, UniProt P30613, R510Q); test: PKR mutant assay (R510Q), AC50, LDH/NADH-coupled, absorbance at 340 nm; format: biochemical; details: Table 2; enzyme assay; read-out: PK R510Q AC50
Sequence (P30613 whole entry R510Q): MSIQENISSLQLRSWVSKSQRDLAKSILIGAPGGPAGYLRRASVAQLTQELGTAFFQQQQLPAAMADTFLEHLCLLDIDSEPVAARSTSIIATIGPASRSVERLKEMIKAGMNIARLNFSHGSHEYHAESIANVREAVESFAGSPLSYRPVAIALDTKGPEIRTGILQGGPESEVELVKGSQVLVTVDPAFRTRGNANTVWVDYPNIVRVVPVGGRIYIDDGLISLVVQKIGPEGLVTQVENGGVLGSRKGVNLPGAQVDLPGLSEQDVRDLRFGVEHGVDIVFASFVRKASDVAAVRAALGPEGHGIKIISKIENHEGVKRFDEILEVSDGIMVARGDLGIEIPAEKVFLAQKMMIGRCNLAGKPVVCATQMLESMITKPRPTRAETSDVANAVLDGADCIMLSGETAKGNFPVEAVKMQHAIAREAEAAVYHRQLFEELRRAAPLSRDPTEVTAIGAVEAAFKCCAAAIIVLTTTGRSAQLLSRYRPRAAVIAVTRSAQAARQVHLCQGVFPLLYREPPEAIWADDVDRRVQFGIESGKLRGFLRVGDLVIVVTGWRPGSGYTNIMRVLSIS

[[record]]
compound = "Cn1c2nc(Cc3ccc(O)cc3)sc2c2cnn(Cc3cccc4[nH]ncc34)c(=O)c21 [Compound 77]"
val = "< 300 nM"


Please list AC50 recorded for the compound Cn1c2nc(Cc3ccncc3)sc2c2cnn(Cc3cccc4[nH]ncc34)c(=O)c21 [Compound 161]
> 800 nM

Please list AC50 recorded for the compound COc1cccc(Cn2ncc3c4sc(C(=O)c5cccc(O)c5)nc4n(C)c3c2=O)c1 [Compound 55]
301 to 800 nM

Please list AC50 recorded for the compound Cc1nc2c(s1)c1cnn(Cc3ccc4[nH]cnc4c3)c(=O)c1n2C [Compound 73]
301 to 800 nM

###

Biological target: PKR R510Q (Homo sapiens, UniProt P30613, R510Q)
Test: PKR mutant assay (R510Q), AC50, LDH/NADH-coupled, absorbance at 340 nm
Type: biochemical
Details: Table 2; enzyme assay; read-out: PK R510Q AC50
Description: Example 11. PKR Mutant Assay PKR or PKR mutant enzyme solution was diluted into a reaction mix, which contains 1× buffer (100 mM KCl, 50 mM Tris pH 7.5, 5 mM MgCl2) as well as PEP (conc depends on enzyme), 180 μM NADH, 0.5 units LDH, 1 mM DTT, 0.03% BSA; final assay concentrations after 1.11 fold dilution are indicated. […] 20 uL ADP was added to start reaction at room temperature and reaction progress was measured as changes in absorbance at 340 nm wavelength at room temperature. […]
Entries annotated with measured AC50

[[record]]
smiles_string = "Cn1c2nc(Cc3n[nH]cc3C(F)(F)F)sc2c2cnn(Cc3cccc4[nH]ncc34)c(=O)c21"
target_system = "PKR R510Q (Homo sapiens, UniProt P30613, R510Q)"
val = "> 800 nM"

[[record]]
smiles_string = "Cn1c2nc(Cc3cn[nH]c3)sc2c2cnn(Cc3cccc4[nH]ncc34)c(=O)c21"
target_system = "PKR R510Q (Homo sapiens, UniProt P30613, R510Q)"
val = "< 300 nM"

[[record]]
smiles_string = "Cn1c2nc(Cc3cccc(C(N)=O)c3)sc2c2cnn(Cc3cccc4[nH]ncc34)c(=O)c21"
target_system = "PKR R510Q (Homo sapiens, UniProt P30613, R510Q)"
val = "< 300 nM"


Write down measured AC50 (PKR R510Q (Homo sapiens, UniProt P30613, R510Q)) for this compound. Cc1nc2c(s1)c1cnn(Cc3cccc(CO)c3)c(=O)c1n2C
< 300 nM

Write down measured AC50 (PKR R510Q (Homo sapiens, UniProt P30613, R510Q)) for this compound. CNc1cccc(Cc2nc3c(s2)c2cnn(Cc4cccc5[nH]ncc45)c(=O)c2n3C)c1
< 300 nM

Write down measured AC50 (PKR R510Q (Homo sapiens, UniProt P30613, R510Q)) for this compound. COc1cccc(Cn2ncc3c4sc(CO)nc4n(C)c3c2=O)c1
< 300 nM

###

molecular target: wild type PKR (Homo sapiens, UniProt P30613); assay: PKR (wild type) enzyme AC50 assay, LDH/NADH-coupled, absorbance at 340 nm; type: biochemical; settings: Table 2; enzyme assay; read-out: PKR WT AC50
Sequence (P30613 whole entry): as the sequence (P30613 whole entry R510Q) above, with Q510R counted along it
Quantity Name: AC50

Sample records with AC50:
[[record]]
molecule = "CSc1nc2c(s1)c1cnn(Cc3cccc4sc(N)nc34)c(=O)c1n2C"
quantity_name = "AC50"
val = "< 300 nM"

[[record]]
molecule = "Cn1c2nc(C(O)(C(N)=O)c3ccccc3)sc2c2cnn(Cc3cccc4[nH]ncc34)c(=O)c21 (centres unmarked)"
quantity_name = "AC50"
val = "301 to 800 nM"

[[record]]
molecule = "COc1cccc(Cn2ncc3c4sc([S+](C)[O-])nc4n(C)c3c2=O)c1 (centres unmarked)"
quantity_name = "AC50"
val = "< 300 nM"

[[record]]
molecule = "Cn1c2nc(C#N)sc2c2cnn(Cc3csc(N)n3)c(=O)c21"
quantity_name = "AC50"
val = "301 to 800 nM"

[[record]]
molecule = "Cn1c2nc(C(c3cccc4[nH]ncc34)S(=O)(=O)c3ccccc3)sc2c2cnn(Cc3cccc4[nH]ncc34)c(=O)c21 (centres unmarked)"
quantity_name = "AC50"
val = "> 800 nM"

[[record]]
molecule = "COc1cccc(Cn2ncc3c4sc(C(C)=O)nc4n(C)c3c2=O)c1"
quantity_name = "AC50"
val = "< 300 nM"

[[record]]
molecule = "Cn1ccc(Cc2nc3c(s2)c2cnn(Cc4cccc5[nH]ncc45)c(=O)c2n3C)n1"
quantity_name = "AC50"
val = "< 300 nM"

[[record]]
molecule = "Cn1c2nc(Cc3ccc(C(N)=O)cc3)sc2c2cnn(Cc3cccc4[nH]ncc34)c(=O)c21"
quantity_name = "AC50"
val = "> 800 nM"

[[record]]
molecule = "Cn1c2nc(C(C)(O)c3ccccc3)sc2c2cnn(Cc3cccc4[nH]ncc34)c(=O)c21 (centres unmarked)"
quantity_name = "AC50"
val = "< 300 nM"

[[record]]
molecule = "Cn1c2nc([S+](C)[O-])sc2c2cnn(Cc3cnc(N)nc3)c(=O)c21 (centres unmarked)"
quantity_name = "AC50"
val = "> 800 nM"


Please list AC50 recorded for the molecule Cc1nc2c(s1)c1cnn(Cc3cccc(N)c3)c(=O)c1n2C
< 300 nM

Please list AC50 recorded for the molecule Cn1c2nc(C(N)c3ccccc3)sc2c2cnn(Cc3cccc4[nH]ncc34)c(=O)c21 (centres unmarked)
< 300 nM

###

Entries annotated with measured AC50
target: PKR R510Q (Homo sapiens, UniProt P30613, R510Q); experiment: PKR mutant assay (R510Q), AC50, LDH/NADH-coupled, absorbance at 340 nm; type: biochemical; conditions: Table 2; enzyme assay; read-out: PK R510Q AC50

Sample records with AC50:
[[record]]
molecule = "Cc1nc2c(s1)c1cnn(Cc3cccc([N+](=O)[O-])c3)c(=O)c1n2C"
val = "> 800 nM"

[[record]]
molecule = "Cn1c2nc(Cc3ccccn3)sc2c2cnn(Cc3cccc4[nH]ncc34)c(=O)c21"
val = "< 300 nM"

[[record]]
molecule = "Cn1c2nc(Cc3ccccc3)sc2c2cnn(Cc3cccc4[nH]ncc34)c(=O)c21"
val = "< 300 nM"


In the following, a different molecule is considered.
Please list AC50 recorded for the molecule COc1cccc(Cn2ncc3c4sc(Cl)nc4n(C)c3c2=O)c1
< 300 nM

###

Entries annotated with measured pEC50
target: PKR R510Q (Homo sapiens, UniProt P30613, R510Q); test: PKR mutant assay (R510Q), AC50, LDH/NADH-coupled, absorbance at 340 nm; details: Table 4; AC50, enzyme assay; read-out: PK R510Q
pEC50: −log10 of the molar value.

Please list pEC50 recorded for the compound CC(=O)c1cccc(CC(c2cc[nH]n2)c2nc3c(s2)c2cnn(Cc4cccc(C(C)=O)c4)c(=O)c2n3C)c1 (centres unmarked)
< 6.10

###

Molecular target: PKR K410E (Homo sapiens, UniProt P30613, K410E)
Sequence (P30613 whole entry K410E): as the sequence (P30613 whole entry R510Q) above, with K410E, Q510R counted along it
Test: PKR mutant assay (K410E), AC50, LDH/NADH-coupled, absorbance at 340 nm
Details: Table 4; AC50, enzyme assay
Method: Example 11. PKR Mutant Assay PKR or PKR mutant enzyme solution was diluted into a reaction mix, which contains 1× buffer (100 mM KCl, 50 mM Tris pH 7.5, 5 mM MgCl2) as well as PEP (conc depends on enzyme), 180 μM NADH, 0.5 units LDH, 1 mM DTT, 0.03% BSA; final assay concentrations after 1.11 fold dilution are indicated. […] 20 uL ADP was added to start reaction at room temperature and reaction progress was measured as changes in absorbance at 340 nm wavelength at room temperature. […]
pEC50: −log10 of the molar value.
Entries annotated with measured pEC50

[[record]]
molecule = "Cn1cc(Cc2nc3c(s2)c2cnn(Cc4cccc5[nH]ncc45)c(=O)c2n3C)cn1 [Compound 186]"
quantity_name = "pEC50"
val = "< 6.10"


Please list pEC50 recorded for the molecule Cn1c2nc(Cc3cc[nH]n3)sc2c2cnn(Cc3n[nH]c4cccnc34)c(=O)c21 [Compound 379]
> 6.52

Please list pEC50 recorded for the molecule Cn1c2nc(Cc3cc[nH]n3)sc2c2cnn(Cc3ccc4cc[nH]c4n3)c(=O)c21 [Compound 380]
> 6.52

Please list pEC50 recorded for the molecule Cn1c2nc(Cc3cc[nH]n3)sc2c2cnn(Cc3ccc4cc(Cl)[nH]c4n3)c(=O)c21 [Compound 388]
> 6.52

Please list pEC50 recorded for the molecule COc1ncccc1Cc1nc2c(s1)c1cnn(Cc3cccc4[nH]ncc34)c(=O)c1n2C [Compound 219]
> 6.52

Please list pEC50 recorded for the molecule Cn1c2nc(Cn3cnnc3)sc2c2cnn(Cc3cccc4[nH]ncc34)c(=O)c21 [Compound 294]
< 6.10

Please list pEC50 recorded for the molecule Cn1c2nc(Cc3cc[nH]n3)sc2c2cnn(Cc3cccc4c3CNC4)c(=O)c21 [Compound 253]
> 6.52

Please list pEC50 recorded for the molecule Cn1c2nc([C@H](O)c3cc[nH]n3)sc2c2cnn(Cc3cccc4[nH]ncc34)c(=O)c21 [Compound 305]
> 6.52

Please list pEC50 recorded for the molecule Cn1c2nc(Cc3cc[nH]n3)sc2c2cnn(Cc3cccc4[nH]cnc34)c(=O)c21 [Compound 278]
> 6.52
